The reported measurements were obtained from patent US20120121692A1.

measurement.type: melting point

As a guide, the following entries are already answered.
| smiles.representation | measurement.type | result |
| --- | --- | --- |
| COc1ccc(/C=C/C(=O)c2c(OC)cc(OC)c(C3=CCN(C)CC3)c2O)cc1 | melting point | 177 to 178 °C |
| COc1cc(OC)c(C2=CCN(C)CC2)c(O)c1C(=O)/C=C/c1ccc(C)cc1 | melting point | 150 to 151 °C |

Would you mind giving melting point for every compound in the list below?
1. COc1cc(OC)c(C2=CCN(C)CC2)c(O)c1C(=O)/C=C/c1ccc(O)cc1
2. COc1cc(OC)c(C2=CCNCC2)c(O)c1C(=O)/C=C/c1ccc(Cl)cc1
3. COc1cc(OC)c(C2=CCNCC2)c(O)c1C(=O)/C=C/c1cccc([N+](=O)[O-])c1
4. COc1cc(OC)c(C(=O)/C=C/c2cccc(Cl)c2)c(O)c1CN1CCOCC1
5. COc1cc(OC)c(C(=O)/C=C/c2cc(OC)c(OC)c(OC)c2)c(O)c1CN1CCOCC1
6. Cc1cccc(-c2cc(=O)c3c(O)cc(O)c(C4=CCN(C)CC4)c3o2)c1

1: 98 to 100 °C; 2: 93 to 94 °C; 3: 199 to 200 °C; 4: 135 to 136 °C; 5: 169 to 170 °C; 6: 179 to 180 °C

---

Provide the reported melting point of each item.

Would you mind giving melting point for every compound in the list below?
1. Cc1ccc(-c2cc(=O)c3c(O)cc(O)c(C4=CCN(C)CC4)c3o2)cc1
2. COc1cc(/C=C/C(=O)c2c(OC)cc(OC)c(C3=CCN(C)CC3)c2O)cc(OC)c1OC

1. 160 to 161 °C
2. 156 to 158 °C

---

measurement.type: melting point

As a guide, the following entries are already answered.
| compound | melting point |
| --- | --- |
| COc1ccc(/C=C/C(=O)c2c(OC)cc(OC)c(C3=CCN(C)CC3)c2O)c(OC)c1OC | 145 to 147 °C |
| COc1cccc(/C=C/C(=O)c2c(OC)cc(OC)c(C3=CCN(C)CC3)c2O)c1OC | 171 to 172 °C |
| COc1cc(OC)c(C(=O)/C=C/c2ccco2)c(O)c1CN1CCOCC1 | 147 to 148 °C |
| COc1cc(OC)c(C(=O)/C=C/c2ccc(Br)cc2)c(O)c1CN1CCCCC1 | 99 to 100 °C |
| COc1cc(OC)c(C2=CCNCC2)c(O)c1C(=O)/C=C/c1ccco1 [Compound E2] | 119 to 120 °C |

Would you mind giving melting point for every compound in the list below?
1. COc1ccc(-c2cc(=O)c3c(OC)cc(OC)c(C4=CCN(C)CC4)c3o2)c(OC)c1OC
2. COc1cc(OC)c(C2=CCN(C)CC2)c(O)c1C(=O)/C=C/c1ccccc1Cl
3. COc1cccc(/C=C/C(=O)c2c(OC)cc(OC)c(C3=CCN(C)CC3)c2O)c1

["209 to 210 °C", "184 to 185 °C", "140 to 141 °C"]

---

Provide the reported melting point of each item.

As a guide, the following entries are already answered.
| molecule | melting point |
| --- | --- |
| COc1cc(OC)c(C2=CCN(C)CC2)c(O)c1C(=O)/C=C/c1ccc(N(C)C)cc1 [Compound A14] | 176 to 177 °C |
| COc1ccc(-c2cc(=O)c3c(O)cc(O)c(C4=CCN(C)CC4)c3o2)cc1 [Compound G4] | 190 to 191 °C |
| COc1cc(OC)c(C2=CCN(C)CC2)c(O)c1C(=O)/C=C/c1cccc(C)c1 [Compound A5] | 165 to 166 °C |

Would you mind giving melting point for every molecule in the list below?
1. COc1cc(OC)c2c(=O)cc(-c3ccc(N(C)C)cc3)oc2c1C1=CCN(C)CC1 [Compound F5]
2. COc1ccc(/C=C/C(=O)c2c(OC)cc(OC)c(CN3CCOCC3)c2O)cc1 [Compound D2]
3. COc1cc(OC)c(C2=CCNCC2)c(O)c1C(=O)/C=C/c1ccc(Br)cc1 [Compound B13]
4. COc1ccc(-c2cc(=O)c3c(OC)cc(OC)c(C4=CCN(C)CC4)c3o2)cc1 [Compound F4]
5. COc1cc(OC)c(C2=CCNCC2)c(O)c1C(=O)/C=C/c1ccccc1[N+](=O)[O-] [Compound B3]

1. 148 to 150 °C
2. 159 to 160 °C
3. 120 to 121 °C
4. 179 to 181 °C
5. 128 to 130 °C
